Source: patent US10851075B2

Consider the following molecules; for each one, report its pIC50.
# Tested on: HeLa cells
# method-notes: MTT cell viability, HeLa
# Assay type: cell-based
# reported-conditions: Homo sapiens; HeLa, Cervix; MTT at 24 hours; Table 3; read-out: IC50
One number for each entry, as −log10 of the molar value.

Illustrative cases are given below, each with its answer.
Looking up CC(=O)c1cc2c(o1)C(=O)c1cc(Cl)ccc1C2=O , I see its pIC50 listed as 6.21

Looking up O=C(c1ccccc1)c1cc2c(o1)C(=O)c1ccccc1C2=O , I see its pIC50 listed as 5.77

Looking up O=C(c1ccccc1)c1cc2c(s1)C(=O)c1ccccc1C2=O , I see its pIC50 listed as 5.70

Looking up CC(=O)c1cc2c(o1)C(=O)c1cc(F)ccc1C2=O , I see its pIC50 listed as 6.10

Now consider the entry below.
Looking up CC(=O)c1cc2c(o1)C(=O)c1ccccc1C2=O , I see its pIC50 listed as 6.37

====

# System: SW480 NSP cells
# method-notes: Anti-CSC MTT assay, SW480 non-SP (NSP) cells
# Assay type: cell-based
# reported-conditions: Homo sapiens, 48 h
Output satisfied for records whose IC50 is lower than 0.4 µM, not satisfied for records at or above 0.4 µM.

Use these answered entries as a reference point.
IC50 under 0.4 µM? Item: O=C1c2ccccc2C(=O)c2oc(C(O)c3ccccc3)cc21 (stereo not drawn) [Compound 302]
not satisfied

IC50 under 0.4 µM? Item: CC(=O)c1cc2c(o1)C(=O)c1cc(F)ccc1C2=O [Compound 418]
satisfied

IC50 under 0.4 µM? Item: CC(=O)c1oc2c(c1CBr)C(=O)c1ccccc1C2=O [Compound 420]
not satisfied

IC50 under 0.4 µM? Item: CC(=O)c1cc2c(o1)C(=O)c1ccccc1C2=O [Compound 401]
satisfied

IC50 under 0.4 µM? Item: O=C(c1ccccc1)c1cc2c(s1)C(=O)c1ccccc1C2=O [Compound 402]
satisfied

Attention now turns to another entry.
IC50 under 0.4 µM? Item: CCc1cc2c(o1)C(=O)c1cc(F)ccc1C2=O [Compound 106]
not satisfied

====

Consider the following compounds; for each one, report its IC50.
# System: SW480 Hoechst SP cells
# method-notes: Anti-CSC MTT assay, SW480 Hoechst side population (SP) cells
# Format: cell-based
# reported-conditions: Homo sapiens, 48 h
Numbers only, in µM.

Illustrative cases are given below, each with its answer.
Looking up CCc1cc2c(o1)C(=O)c1cc(F)ccc1C2=O , I see its IC50 listed as 4.44

Looking up O=C(c1ccccc1)c1cc2c(s1)C(=O)c1ccccc1C2=O , I see its IC50 listed as 0.4

Looking up CC(=O)c1cc2c(o1)C(=O)c1ccccc1C2=O , I see its IC50 listed as 0.34

Looking up O=C1c2ccccc2C(=O)c2oc(C(O)c3ccccc3)cc21 (stereo not drawn) , I see its IC50 listed as 2.06

Looking up CC(=O)c1cc2c(o1)C(=O)c1cc(F)ccc1C2=O , I see its IC50 listed as 0.34

Now consider the entry below.
Looking up CC(=O)c1oc2c(c1CBr)C(=O)c1ccccc1C2=O , I see its IC50 listed as 0.59

====

Consider the following compounds; for each one, report its IC50.
# System: HeLa cells
# method-notes: MTT cell viability, HeLa
# Format: cell-based
# reported-conditions: Homo sapiens; Hela; MTT at 24 hours; Table 4; read-out: IC50 (μM) Hela
Answers are plain numbers, in µM.

Illustrative cases are given below, each with its answer.
Looking up O=C(c1ccccc1)c1cc2c(s1)C(=O)c1ccccc1C2=O , I see its IC50 listed as 2.01

Looking up O=C1c2ccccc2C(=O)c2oc(C(O)c3ccccc3)cc21 (centres unmarked) , I see its IC50 listed as 7.8

Looking up O=C(c1ccccc1)c1cc2c(o1)C(=O)c1ccccc1C2=O , I see its IC50 listed as 1.69

Looking up COc1ccc(C(=O)c2cc3c(s2)C(=O)c2ccccc2C3=O)cc1OC , I see its IC50 listed as 2.52

Looking up CC(=O)c1cc2c(o1)C(=O)c1ccccc1C2=O , I see its IC50 listed as 0.428

Working through the 4 compounds below one at a time, give IC50 for each.
1. O=C(c1ccc(O)c(O)c1)c1cc2c(s1)C(=O)c1ccccc1C2=O
2. CCc1cc2c(o1)C(=O)c1ccccc1C2=O
3. CC(=O)OC(C)c1cc2c(o1)C(=O)c1cc(F)ccc1C2=O (centres unmarked)
4. O=C1c2ccccc2C(=O)c2oc(Cc3ccccc3)cc21

14.7
11.7
1.71
16.7

Working through the 8 compounds below one at a time, give IC50 for each.
1. CCc1cc2c(o1)C(=O)c1cc(Cl)ccc1C2=O
2. CC(=O)c1cc2c(o1)C(=O)c1cc(Cl)ccc1C2=O
3. CC(O)c1cc2c(o1)C(=O)c1ccccc1C2=O (centres unmarked)
4. O=C(c1ccccc1)c1cc2c(o1)C(=O)c1cc(Br)ccc1C2=O
5. O=Cc1cc2c(o1)C(=O)c1ccccc1C2=O
6. Cc1oc2c(c1-c1ccccc1)C(=O)c1ccccc1C2=O
7. O=C(c1ccc(O)cc1)c1cc2c(s1)C(=O)c1ccccc1C2=O
8. C=Cc1cc2c(o1)C(=O)c1cc(F)ccc1C2=O

[13, 0.711, 3.36, 10.5, 13, 20.7, 4.47, 4.56]

Working through the 3 compounds below one at a time, give IC50 for each.
1. Cc1cc2c(o1)C(=O)c1ccccc1C2=O
2. COc1ccc(C(=O)c2cc3c(o2)C(=O)c2ccccc2C3=O)cc1OC
3. CC(O)c1cc2c(o1)C(=O)c1cc(F)ccc1C2=O (centres unmarked)

[11.4, 4.38, 1.67]
